Molecular target: MST4 (human) (UniProt Q9P289)
Sequence (Q9P289 whole entry, looked up): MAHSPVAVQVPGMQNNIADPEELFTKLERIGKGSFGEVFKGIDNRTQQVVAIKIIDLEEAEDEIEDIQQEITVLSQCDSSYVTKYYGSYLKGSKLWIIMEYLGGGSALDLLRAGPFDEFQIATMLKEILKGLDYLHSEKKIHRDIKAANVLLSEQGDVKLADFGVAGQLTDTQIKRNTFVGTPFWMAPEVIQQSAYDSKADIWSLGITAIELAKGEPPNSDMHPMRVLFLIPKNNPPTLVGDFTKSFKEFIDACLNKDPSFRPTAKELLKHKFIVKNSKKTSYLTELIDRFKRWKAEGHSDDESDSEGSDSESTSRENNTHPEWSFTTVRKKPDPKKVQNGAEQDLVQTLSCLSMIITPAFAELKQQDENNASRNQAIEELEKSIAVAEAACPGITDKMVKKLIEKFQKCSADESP
Assay: radiometric filter-binding kinase assay
Settings: compound 0.1 µM
Quantity: residual activity (%)

>>> readout_number("CN(C)C/C=C/C(=O)Nc1cccc(C(=O)Nc2ccc(Nc3nccc(-c4cccnc4)n3)cc2)c1")
98
>>> readout_number("COc1ccc(N(C(=O)Nc2c(C)cccc2C)c2cc(Nc3ccc(N4CCN(C)CC4)cc3)ncn2)c(OC)c1")
95
>>> readout_number("NC(=O)c1cc(-c2ccnc(NC3CCCCC3)c2)nc(N2CCNCC2)c1")
117

---

System: ROCK2 (rat)
Test: radiometric filter-binding kinase assay
Details: compound 0.1 µM; accession and sequence are those of the human protein
Quantity: residual activity (%)

>>> readout_number("Cc1cccc(-c2nn(C(=S)Nc3ccccc3)cc2-c2ccnc3ccccc23)n1")
96
>>> readout_number("C/C(=C1/C(=O)Nc2ccc(NC(N)=O)cc21)c1ccc[nH]1")
84
>>> readout_number("O=C(O)c1ccc(-c2c[nH]c3ncc(-c4ccccc4)cc23)cc1C1CCCC1")
84
>>> readout_number("NC1(c2ccc(-c3nc4ccn5c(=O)[nH]nc5c4cc3-c3ccccc3)cc2)CCC1")
85
>>> readout_number("COc1cc(O)c2c(c1)/C=C/C[C@H](O)[C@H](O)C(=O)/C=C\\C[C@H](C)OC2=O")
116
>>> readout_number("NC(=O)c1cc2c(-c3cccc(-c4ccccc4)c3)cnc(N)c2s1")
75
>>> readout_number("CN1CCN(CCOc2cc(OC3CCOCC3)c3c(Nc4c(Cl)ccc5c4OCO5)ncnc3c2)CC1")
111
>>> readout_number("CCc1cncnc1N1CCN(Cc2nc3cc(C(F)(F)F)ccc3[nH]2)CC1")
98
>>> readout_number("CN(C)C/C=C/C(=O)Nc1cccc(C(=O)Nc2ccc(Nc3nccc(-c4cccnc4)n3)cc2)c1")
89
>>> readout_number("CC1=C(CO)C(=O)O[C@@H]([C@@H](C)[C@H]2CC[C@H]3[C@@H]4C[C@H]5O[C@]56[C@@H](O)C=CC(=O)[C@]6(C)C4CC[C@]23C)C1 (some centres not stated)")
103
>>> readout_number("O=C(Nc1nc2cc(C(F)(F)F)cc(NC3CC3)n2n1)c1cccnc1")
106
>>> readout_number("CCCCCc1ccc(/C=C/[C@H](O)[C@@H](CO)NC)cc1")
110
>>> readout_number("Cc1ccc(-c2ccc3c(ccc4sc5c(c43)NC[C@@H](C)NC5=O)n2)cn1")
112
>>> readout_number("O=C(N[C@@H](COc1ccc2[nH]c(=O)[nH]c2c1)c1ccccc1)c1cccn(Cc2ccc(F)c(F)c2)c1=O")
105
>>> readout_number("COc1ccc2c(c1)c1c3c(c4c5ccccc5n(C)c4c1n2CC(O)CN(C)C)C(=O)NC3=O (configuration not stated)")
118
>>> readout_number("Cc1cc(NC(=O)c2cccc(NC(=O)/C=C/CN(C)C)c2)ccc1Nc1nccc(-c2cccnc2)n1")
86
>>> readout_number("CNc1nc(-c2ccc3c(N)n[nH]c3c2)cc(N2C[C@@H](C(=O)NC3CCCCC3)CC[C@H]2C)n1")
92
